# target_system: c-Myc/Max/Ebox DNA (Homo sapiens, UniProt P01106)
# Construct: his6 (cleaved yes)
# Sequence (P01106 whole entry): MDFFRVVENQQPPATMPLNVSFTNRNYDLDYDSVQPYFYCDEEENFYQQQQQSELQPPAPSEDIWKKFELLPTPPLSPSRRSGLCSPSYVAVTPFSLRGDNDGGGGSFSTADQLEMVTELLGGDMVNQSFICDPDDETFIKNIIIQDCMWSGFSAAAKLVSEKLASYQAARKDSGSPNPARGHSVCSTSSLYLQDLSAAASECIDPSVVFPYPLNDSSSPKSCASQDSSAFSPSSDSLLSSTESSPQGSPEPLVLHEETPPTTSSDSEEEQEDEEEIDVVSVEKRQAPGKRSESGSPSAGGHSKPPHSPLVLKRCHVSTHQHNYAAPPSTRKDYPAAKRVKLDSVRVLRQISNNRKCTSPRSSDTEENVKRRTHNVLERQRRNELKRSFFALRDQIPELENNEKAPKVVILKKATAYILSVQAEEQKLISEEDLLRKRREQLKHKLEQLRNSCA
# assay_details: c-Myc/Max/Ebox DNA AlphaScreen Assay
# condition_details: calculated IC50; free c-Myc 20 nM, his6-Max 5 nM, biotinylated Ebox oligo 10 nM; 2 hour incubation
measured_attribute: IC50

Before answering, review these 3 worked examples.
>>> value("CC(C)NCCC(=O)Nc1sc2c(c1-c1nc(-c3ccc[nH]c3=O)cs1)CCNC2")
"< 500 nM"
>>> value("CC(C)NCCC(=O)Nc1sc2c(c1-c1nc(-c3cncc(F)c3)cs1)CCNC2")
"< 500 nM"
>>> value("CC(=O)Nc1sc2c(c1-c1nc(-c3ccccc3)cs1)CCNC2")
"> 10000 nM"

In: Name the value of IC50 reported for CC(C)NCCC(=O)Nc1sc2c(c1-c1nc(C(=O)O)cs1)CCNC2 when tested on c-Myc/Max/Ebox DNA (Homo sapiens, UniProt P01106).
Out: 500 to 5000 nM

In: Retrieve IC50 on c-Myc/Max/Ebox DNA (Homo sapiens, UniProt P01106); query COc1cncc(-c2csc(-c3c(NC(=O)CCNC(C)C)sc4c3CCNC4)n2)c1
Out: < 500 nM

In: Give IC50 only, for CC(C)NCCC(=O)Nc1sc2c(c1-c1nc(-c3cnn(C)c3)cs1)CCNC2 , using c-Myc/Max/Ebox DNA (Homo sapiens, UniProt P01106) data.
Out: < 500 nM

###

# target_system: c-Myc/Max/Ebox DNA (Homo sapiens, UniProt P01106)
# Construct: his6 (cleaved yes)
# assay_details: c-Myc/Max/Ebox DNA AlphaScreen Assay
# condition_details: calculated IC50; free c-Myc 20 nM, his6-Max 5 nM, biotinylated Ebox oligo 10 nM; 2 hour incubation
pIC50: −log10 of the molar value. Structures can show the parent of a compound that is named as a salt.
measured_attribute: pIC50

>>> value("CC(C)NCCC(=O)Nc1sc2c(c1-c1nc(-c3cncnc3)cs1)CCNC2")
"> 6.30"
>>> value("Cc1ccncc1-c1csc(-c2c(NC(=O)CCNC(C)C)sc3c2CCNC3)n1")
"5.30 to 6.30"
>>> value("CC(C)NCCC(=O)Nc1sc2c(c1-c1nc(C(=O)Nc3cccnc3)cs1)CCNC2")
"> 6.30"

In: Would you please give the reported pIC50 of Cc1cn(-c2csc(-c3c(NC(=O)CCNC(C)C)sc4c3CCNC4)n2)cn1 with c-Myc/Max/Ebox DNA (Homo sapiens, UniProt P01106)?
Out: 5.30 to 6.30

In: State measured pIC50 of the compound Cc1cncc(-c2csc(-c3c(NC(=O)CCNC(C)C)sc4c3CCNC4)n2)c1 with c-Myc/Max/Ebox DNA (Homo sapiens, UniProt P01106).
Out: > 6.30

In: Output reported pIC50 of the compound CC(C)NCCC(=O)Nc1sc2c(c1-c1nc(-c3cccnc3)cs1)CCNC2 on c-Myc/Max/Ebox DNA (Homo sapiens, UniProt P01106).
Out: > 6.30

In: State pIC50 (c-Myc/Max/Ebox DNA (Homo sapiens, UniProt P01106)) of COCCNCCC(=O)Nc1sc2c(c1-c1nc(-c3ccccn3)cs1)CCNC2 .
Out: 5.30 to 6.30

In: Look up and report pIC50, with c-Myc/Max/Ebox DNA (Homo sapiens, UniProt P01106) as system, for CC(C)NCCC(=O)Nc1sc2c(c1-c1nc(C3=CCOCC3)cs1)CCNC2 [Compound 130, dihydrochloride]
Out: 5.30 to 6.30

In: Report pIC50 on c-Myc/Max/Ebox DNA (Homo sapiens, UniProt P01106) for this entry: COc1ncccc1-c1csc(-c2c(NC(=O)CCNC(C)C)sc3c2CCNC3)n1
Out: > 6.30

###

# target_system: c-Myc/Max/Ebox DNA (Homo sapiens, UniProt P01106)
# Construct: his6 (cleaved yes)
# assay_details: c-Myc/Max/Ebox DNA AlphaScreen Assay
# condition_details: calculated IC50; free c-Myc 20 nM, his6-Max 5 nM, biotinylated Ebox oligo 10 nM; 2 hour incubation
measured_attribute: IC50

>>> value("CC(C)NCCC(=O)Nc1sc2c(c1-c1nc(C(=O)Nc3ccccc3)cs1)CCNC2 [Compound 113]")
"> 10000 nM"
>>> value("CC(C)NCCC(=O)Nc1sc2c(c1-c1nc(C3=CCNCC3)cs1)CCNC2 [Compound 126]")
"< 500 nM"

Next:
In: Supply measured IC50 of CC(C)NCCC(=O)Nc1sc2c(c1-c1nc(-c3ccccn3)cs1)CCNC2 [Compound 104] in your reply.
Out: < 500 nM
